Biological target: T1, IL-18R on HEK-Blue IL18R reporter cells (InvivoGen, #hkb-hmi118) (UniProt Q13478 19-541; O95256 20-599, limits assumed)
T1 sequence (looked up) 1: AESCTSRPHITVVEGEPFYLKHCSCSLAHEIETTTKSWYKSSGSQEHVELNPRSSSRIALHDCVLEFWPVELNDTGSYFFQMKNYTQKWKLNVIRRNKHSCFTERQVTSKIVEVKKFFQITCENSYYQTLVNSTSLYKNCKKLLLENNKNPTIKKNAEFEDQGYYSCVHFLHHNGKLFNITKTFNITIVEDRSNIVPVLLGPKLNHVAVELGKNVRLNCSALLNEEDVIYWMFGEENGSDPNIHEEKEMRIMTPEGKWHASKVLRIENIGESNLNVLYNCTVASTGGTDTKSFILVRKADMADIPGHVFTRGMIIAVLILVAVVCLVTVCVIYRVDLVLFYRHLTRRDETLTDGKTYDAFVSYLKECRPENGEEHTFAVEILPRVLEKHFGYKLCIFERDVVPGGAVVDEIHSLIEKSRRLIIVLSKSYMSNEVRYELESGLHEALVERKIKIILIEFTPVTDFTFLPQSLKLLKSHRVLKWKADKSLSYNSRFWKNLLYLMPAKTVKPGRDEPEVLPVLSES
T1 sequence (looked up) 2: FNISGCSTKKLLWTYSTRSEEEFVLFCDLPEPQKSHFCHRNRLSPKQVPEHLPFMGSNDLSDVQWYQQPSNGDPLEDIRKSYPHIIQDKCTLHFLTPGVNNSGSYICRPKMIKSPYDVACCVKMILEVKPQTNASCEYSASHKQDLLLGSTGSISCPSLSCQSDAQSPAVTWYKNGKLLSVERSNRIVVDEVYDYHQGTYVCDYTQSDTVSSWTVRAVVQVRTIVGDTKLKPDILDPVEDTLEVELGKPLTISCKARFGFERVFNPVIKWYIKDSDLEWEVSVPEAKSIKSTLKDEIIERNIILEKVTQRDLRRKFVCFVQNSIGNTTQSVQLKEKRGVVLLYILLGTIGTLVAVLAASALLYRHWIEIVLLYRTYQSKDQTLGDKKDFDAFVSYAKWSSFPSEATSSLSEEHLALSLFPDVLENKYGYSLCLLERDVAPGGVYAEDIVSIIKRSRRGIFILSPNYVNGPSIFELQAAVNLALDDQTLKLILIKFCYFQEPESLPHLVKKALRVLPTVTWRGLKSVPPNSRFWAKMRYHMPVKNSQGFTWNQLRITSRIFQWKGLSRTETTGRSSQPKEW
Assay: cell-based or functional assay
reported metric: EC50, HEK-Blue IL18R reporter assay (pM)
Kindly answer with a numeric value in pM, unit omitted.

[
  {
    "binder": "IL-18 polypeptide C140 (SEQ ID NO: 72; N-terminal 4xG, E6K, V11I, C38A, K53A, T63A, C76A, C127A) (ligand) GGGGYFGKLKSKLSIIRNLNDQVLFIDQGNRPLFEDMTDSDARDNAPRTIFIISMYADSQPRGMAVAISVKCEKISTLSAENKIISFKEMNPPDNIKDTKSDIIFFQRSVPGHDNKMQFESSSYEGYFLAAEKERDLFKLILKKEDELGDRSIMFTVQNED",
    "unit text": "pM",
    "EC50, HEK-Blue IL18R reporter assay": 2.5
  }
]

// next entry
Report EC50, HEK-Blue IL18R reporter assay for IL-18 polypeptide C174 (K8L, E6K, V11I, C38A, K53A, T63A, C76A, C127A) (ligand) YFGKLKSLLSIIRNLNDQVLFIDQGNRPLFEDMTDSDARDNAPRTIFIISMYADSQPRGMAVAISVKCEKISTLSAENKIISFKEMNPPDNIKDTKSDIIFFQRSVPGHDNKMQFESSSYEGYFLAAEKERDLFKLILKKEDELGDRSIMFTVQNED please.
0.29
